system: human lung cancer strain NCI-H441; details: read-out: NCI-H441 IC50; NCI-H441 cells, 4 days, CellTiter-Glo

>  <molecule>
CC[C@H](C)[C@@H]1NC(=O)[C@H](CC)N(C)C(=O)C[C@@H](C(=O)N(C)C)N(C)C(=O)[C@H](C2CCCC2)N(C)C(=O)C2(CCC2)NC(=O)[C@@H]2CC(F)(F)CN2C(=O)[C@H](CCc2cc(F)c(C(F)(F)F)c(F)c2)NC(=O)CN(C)C(=O)[C@H](CC2CCCCC2)N2CC/C=C\C[C@@H](C2=O)N(C)C(=O)CN(C)C1=O [PP1462]

>  <units_of_measure>
µM

>  <IC50>
0.0275

$$$$

----------
system: human lung cancer strain NCI-H441; experiment: cells; details: NCI-H441, 96 h, read-out: NCI-H441 IC50 (nM)
readout_kind: IC50

>  <smiles_repr>
CC[C@H](C)[C@@H]1NC(=O)[C@H](CC)N(C)C(=O)C[C@@H](C(=O)N(C)C)N(C)C(=O)[C@H](C2CCCC2)N(C)C(=O)C2(CCCC2)NC(=O)[C@@H]2CCCN2C(=O)[C@H](CCc2cc(F)c(C(F)(F)F)c(F)c2)NC(=O)CN(C)C(=O)[C@H](Cc2ccc(C(F)(F)F)cc2)N2C[C@H](C)CC[C@@H](C2=O)N(C)C(=O)CN(C)C1=O

>  <measured>
15.8 nM

$$$$
>  <smiles_repr>
CCO[C@@H]1C[C@H]2C(=O)NC3(CCC3)C(=O)N(C)[C@@H](C(CC)CC)C(=O)N(C)[C@H](C(=O)N(C)C)CC(=O)N(C)[C@@H](CC3CC3)C(=O)N[C@@H]([C@@H](C)CC)C(=O)N(C)CC(=O)N(C)[C@H]3C/C=C\CCN(C3=O)[C@@H](Cc3ccc(C(F)(F)F)cc3)C(=O)N(C)CC(=O)N[C@@H](CCc3ccc(C(F)(F)F)c(OC)c3)C(=O)N2C1

>  <measured>
26.8 nM

$$$$
>  <smiles_repr>
CCC[C@H]1C(=O)N[C@@H]([C@@H](C)CC)C(=O)N(C)CC(=O)N(C)[C@H]2C/C=C\CCN(C2=O)[C@@H](Cc2ccc(C(F)(F)F)cc2)C(=O)N(C)CC(=O)N[C@@H](CCc2ccc3sccc3c2)C(=O)N2C[C@H](OCC)C[C@H]2C(=O)NC2(CCC2)C(=O)N(C)[C@@H](C2CCCC2)C(=O)N(C)[C@H](C(=O)N(C)C)CC(=O)N1C

>  <measured>
69 nM

$$$$

----------
The entries below come with measured IC50 values attached.
system: human lung cancer strain NCI-H441; conditions: read-out: NCI-H441 IC50; NCI-H441 cells, 4 days, CellTiter-Glo

>  <smiles_repr>
CCCC[C@H]1C(=O)N[C@@H]([C@@H](C)CC)C(=O)N(C)CC(=O)N(C)[C@H]2C/C=C\CCN(C2=O)[C@@H](Cc2ccc(C(F)(F)F)cc2)C(=O)N(C)CC(=O)N[C@@H](CCc2cc(F)c(C(F)(F)F)c(F)c2)C(=O)N2C[C@H](OCC)C[C@H]2C(=O)NC2(CCCC2)C(=O)N(C)[C@@H](C2CCCC2)C(=O)N(C)[C@H](C(=O)N(C)C)CC(=O)N1C

>  <IC50 / nM>
3.7

$$$$
>  <smiles_repr>
CC[C@H](C)[C@@H]1NC(=O)[C@H](C)N(C)C(=O)C[C@@H](C(=O)N(C)C)N(C)C(=O)[C@H](C2CCCC2)N(C)C(=O)C2(CCC2)NC(=O)[C@@H]2CCCN2C(=O)[C@H](CCc2cc(F)c(C(F)(F)F)c(F)c2)NC(=O)CN(C)C(=O)[C@H](Cc2ccc(C(F)(F)F)cc2)N2CC/C=C\C[C@@H](C2=O)N(C)C(=O)CN(C)C1=O

>  <IC50 / nM>
90.7

$$$$
>  <smiles_repr>
CCC[C@H]1C(=O)N[C@@H]([C@@H](C)CC)C(=O)N(C)CC(=O)N(C)[C@H]2C/C=C\CCN(C2=O)[C@@H](CC2CCC(F)(F)CC2)C(=O)N(C)CC(=O)N[C@@H](CCc2cc(F)c(C(F)(F)F)c(F)c2)C(=O)N2C[C@H](OCC)C[C@H]2C(=O)NC2(CCC2)C(=O)N(C)[C@@H](C2CCCC2)C(=O)N(C)[C@H](C(=O)N(C)C)CC(=O)N1C

>  <IC50 / nM>
50.1

$$$$

----------
The entries below come with measured IC50 values attached.
system: human lung cancer strain NCI-H441; test: cells; details: NCI-H441, 96 h, read-out: NCI-H441 IC50 (nM)

>  <smiles_repr>
CCC[C@H]1C(=O)N[C@@H]([C@@H](C)CC)C(=O)N(C)CC(=O)N(C)[C@H]2C/C=C\CCN(C2=O)[C@@H](Cc2ccc(C(F)(F)F)cc2)C(=O)N(C)CC(=O)N[C@@H](CCc2ccc(C(F)(F)F)c(OC)c2)C(=O)N2C[C@H](OCC)C[C@H]2C(=O)NC2(CCC2)C(=O)N(C)[C@@H](C(CC)CC)C(=O)N(C)[C@H](C(=O)N(C)C)CC(=O)N1C

>  <IC50>
24.4 nM

$$$$
>  <smiles_repr>
CCO[C@@H]1C[C@H]2C(=O)NC3(CC(C)(C)C3)C(=O)N(C)[C@@H](C3CCCC3)C(=O)N(C)[C@H](C(=O)N(C)C)CC(=O)N(C)[C@@H](CC3CCC3)C(=O)N[C@@H]([C@@H](C)CC)C(=O)N(C)CC(=O)N(C)[C@H]3C/C=C\CCN(C3=O)[C@@H](Cc3ccc(C(F)(F)F)cc3)C(=O)N(C)CC(=O)N[C@@H](CCc3ccc(C(F)(F)F)c(OC)c3)C(=O)N2C1

>  <IC50>
3 nM

$$$$
>  <smiles_repr>
CCO[C@@H]1C[C@H]2C(=O)NC3(CCC3)C(=O)N(C)[C@@H](C(CC)CC)C(=O)N(C)[C@H](C(=O)N(C)C)CC(=O)N(C)[C@@H](C)C(=O)N[C@@H]([C@@H](C)CC)C(=O)N(C)CC(=O)N(C)[C@H]3C/C=C\CCN(C3=O)[C@@H](Cc3ccc(C(F)(F)F)cc3)C(=O)N(C)CC(=O)N[C@@H](CCc3ccc4sccc4c3)C(=O)N2C1

>  <IC50>
301 nM

$$$$

----------
molecular target: UniProt:P01116; assay: Binding to KRAS by surface plasmon resonance (SPR), Single Cycle Kinetics; settings: SPR, Single Cycle Kinetics; GDP-bound KRAS wild-type protein
pKd: −log10 of the molar value.

>  <smiles_repr>
CC[C@H](C)[C@@H]1NC(=O)[C@H](C)N(C)C(=O)C[C@@H](C(=O)N(C)C)N(C)C(=O)[C@H](C2CCCC2)N(C)C(=O)C2(CCC2)NC(=O)[C@@H]2CCCN2C(=O)[C@H](CCc2cc(F)c(C(F)(F)F)c(F)c2)NC(=O)CN(C)C(=O)[C@H](Cc2ccc(C(F)(F)F)cc2)N2CC/C=C\C[C@@H](C2=O)N(C)C(=O)CN(C)C1=O

>  <target_or_system>
UniProt:P01116

>  <pKd>
10.27

$$$$
>  <smiles_repr>
CCO[C@@H]1C[C@H]2C(=O)NC3(CCC3)C(=O)N(C)[C@@H](C3CCCC3)C(=O)N(C)[C@H](C(=O)N(C)C)CC(=O)N(C)[C@@H](CC3CC3)C(=O)N[C@@H]([C@@H](C)CC)C(=O)N(C)CC(=O)N(C)[C@H]3C/C=C\CCN(C3=O)[C@@H](Cc3ccc(C)cc3)C(=O)N(C)CC(=O)N[C@@H](CCc3cc(F)c(C(F)(F)F)c(F)c3)C(=O)N2C1

>  <target_or_system>
UniProt:P01116

>  <pKd>
10.13

$$$$
>  <smiles_repr>
CC[C@H](C)[C@@H]1NC(=O)[C@H](CC2CC2)N(C)C(=O)C[C@@H](C(=O)N(C)C)N(C)C(=O)[C@H](C2CCCC2)N(C)C(=O)C2(CCC2)NC(=O)[C@@H]2C[C@@H](F)CN2C(=O)[C@H](CCc2cc(F)c(C(F)(F)F)c(F)c2)NC(=O)CN(C)C(=O)[C@H](Cc2ccc(C(F)(F)F)cc2)N2CC/C=C\C[C@@H](C2=O)N(C)C(=O)CN(C)C1=O

>  <target_or_system>
UniProt:P01116

>  <pKd>
10.66

$$$$
>  <smiles_repr>
CCO[C@@H]1C[C@H]2C(=O)NC3(CCC3)C(=O)N(C)[C@@H](C3CCCC3)C(=O)N(C)[C@H](C(=O)N3CCOCC3)CC(=O)N(C)[C@@H](Cc3ccccc3)C(=O)N[C@@H]([C@@H](C)CC)C(=O)N(C)CC(=O)N(C)[C@H]3CCCCCN(C3=O)[C@@H](Cc3ccc(F)cc3)C(=O)N(C)CC(=O)N[C@@H](CCc3cc(F)c(C(F)(F)F)c(F)c3)C(=O)N2C1

>  <target_or_system>
UniProt:P01116

>  <pKd>
9.72

$$$$
